Recorded IC50, one value per entry.
molecular target: Cytochrome P450 3A4 (Homo sapiens, UniProt P08684); assay: Inhibition of CYP3A4 in human liver microsomes using midazolam as substrate preincubated for 5 mins followed by NADPH addition and measured after 5 mins by LC-MS/MS analysis; assay type: ADME, Microsome
Sequence (P08684 whole entry): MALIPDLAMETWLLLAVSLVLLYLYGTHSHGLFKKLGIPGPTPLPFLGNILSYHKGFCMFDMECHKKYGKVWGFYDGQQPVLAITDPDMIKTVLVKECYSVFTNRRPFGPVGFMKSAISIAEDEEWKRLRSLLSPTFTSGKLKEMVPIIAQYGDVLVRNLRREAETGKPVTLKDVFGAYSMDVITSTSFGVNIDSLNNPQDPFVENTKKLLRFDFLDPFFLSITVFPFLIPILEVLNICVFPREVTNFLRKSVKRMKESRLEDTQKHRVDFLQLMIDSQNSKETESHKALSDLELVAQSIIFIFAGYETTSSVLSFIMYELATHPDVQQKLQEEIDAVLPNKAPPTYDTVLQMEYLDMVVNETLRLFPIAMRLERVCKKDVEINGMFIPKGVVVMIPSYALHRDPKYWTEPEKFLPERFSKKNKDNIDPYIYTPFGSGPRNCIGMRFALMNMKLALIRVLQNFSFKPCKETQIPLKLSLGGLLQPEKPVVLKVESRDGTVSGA

- compound: "N#Cc1ccc(COc2cccc(C3CCN(Cc4nc5ccc(C(=O)O)cc5n4C[C@@H]4CCO4)CC3)n2)c(F)c1 [DANUGLIPRON]"
  IC50: "> 10 µM"
- compound: "O=C(O)c1ccc2nc(CN3CCC(c4cccc(OCc5ccc(C6COC6)cc5F)n4)CC3)n(C[C@@H]3CCO3)c2c1"
  IC50: "> 10 µM"
